tested on: Danio rerio Tg(wt1b:EGFP) embryo, pronephros; assay: glomerular separation, fold change vs DMSO control; higher = glomeruli further apart (abnormal); conditions: 25 µM; exposure: 24-48 hpf
Structures can show the parent of a compound that is named as a salt.
measure: glomerular separation
Hey, just send me the number, nothing else.

Recorded results for 4 molecules are shown here.
{"molecule": "CCCNC(C)(C)COC(=O)c1ccccc1 [Meprylcaine hydrochloride]", "measure": "glomerular separation", "recorded_number": 1.08}
{"molecule": "Cc1ncc([N+](=O)[O-])n1CCO", "measure": "glomerular separation", "recorded_number": 1.1}
{"molecule": "CC(C)CC(=O)N[C@H](C(=O)N[C@H](C(=O)N[C@@H](CC(C)C)[C@@H](O)CC(=O)N[C@@H](C)C(=O)N[C@@H](CC(C)C)[C@@H](O)CC(=O)O)C(C)C)C(C)C", "measure": "glomerular separation", "recorded_number": 0.947}
{"molecule": "CC(=O)CCCCn1c(=O)c2c(ncn2C)n(C)c1=O", "measure": "glomerular separation", "recorded_number": 0.678}

Look up glomerular separation for this molecule: "N[C@@H](Cc1cc(I)c(Oc2ccc(O)c(I)c2)c(I)c1)C(=O)O" 0.912

Look up glomerular separation for this molecule: CSc1ccc2c(c1)N(CCC1CCCCN1C)c1ccccc1S2 (stereo unspecified) [Thioridazine hydrochloride] 1.12

Look up glomerular separation for this molecule: CSc1ccc2c(c1)C(N1CCN(C)CC1)Cc1ccccc1S2 (stereo unspecified) [Methiothepin maleate] 1.06

Look up glomerular separation for this molecule: "Nc1nc2c(ncn2COC(CO)CO)c(=O)[nH]1" 0.62

Look up glomerular separation for this molecule: Cc1cc(O)c(C(=O)N[C@@H](C(=O)N[C@@H]2C(=O)N3C(C(=O)O)=C(CSc4nnnn4C)CS[C@H]23)c2ccc(O)cc2)cn1 [Cefpiramide] 1.22

Look up glomerular separation for this molecule: "CC[C@H](C)C(=O)O[C@H]1C[C@H](O)C=C2C=C[C@H](C)[C@H](CC[C@@H](O)C[C@@H](O)CC(=O)O)[C@H]21" 1.12

Look up glomerular separation for this molecule: C=CCOC(Cn1ccnc1)c1ccc(Cl)cc1Cl (stereo unspecified) 0.575

The measurements presented in this section are drawn from the supplement of paper PMC7366291.
